B1: Azoarcus group I ribozyme (parent)
chain: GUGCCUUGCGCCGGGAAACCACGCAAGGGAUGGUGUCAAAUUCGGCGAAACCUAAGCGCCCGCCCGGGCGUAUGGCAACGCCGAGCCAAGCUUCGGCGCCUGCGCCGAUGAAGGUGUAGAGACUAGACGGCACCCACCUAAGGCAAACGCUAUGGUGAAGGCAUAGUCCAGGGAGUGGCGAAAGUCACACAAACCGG

# Variants of: B1
# protocol description: reverse-splicing fitness (ratio to wild type); higher = more active; in vitro selection; Mg2+ level not given
Kindly supply the reported reverse-splicing fitness values for the records listed here.
I only need the number, thanks.

GET /values?readout=reverse-splicing fitness&item= C82U A111C A120C A145C C150G C169G U176A
0.00861

Query: reverse-splicing fitness; subject: C82U A111U A120C A145G C150G C169G U176C
0.0112

Request the reported reverse-splicing fitness associated with C82G A111U A145G C150U C169U U176G
0.00638
